ASSAYED TARGET: T1, recombinant human activated Factor VII (FVIIa) (human, UniProt P08709 61-212; P08709 213-466, ten glutamate residues of the Gla domain may be gamma-carboxylated)
T1 construct: chains tethered by a disulfide bond; also called Factor VIIa; rFVIIa
T1 sequence 1: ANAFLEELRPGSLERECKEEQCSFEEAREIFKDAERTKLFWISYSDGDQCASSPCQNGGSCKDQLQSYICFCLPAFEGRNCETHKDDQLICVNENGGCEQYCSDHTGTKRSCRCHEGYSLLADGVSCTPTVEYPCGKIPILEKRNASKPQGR
T1 sequence 2: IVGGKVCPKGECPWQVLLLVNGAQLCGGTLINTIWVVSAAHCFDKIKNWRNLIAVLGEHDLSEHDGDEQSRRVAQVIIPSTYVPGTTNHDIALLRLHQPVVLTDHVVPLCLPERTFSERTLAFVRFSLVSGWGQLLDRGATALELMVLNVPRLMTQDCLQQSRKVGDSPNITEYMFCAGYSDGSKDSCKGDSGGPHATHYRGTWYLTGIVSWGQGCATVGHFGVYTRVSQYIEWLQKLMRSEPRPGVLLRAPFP
METHOD NOTES: BLI (Fortebio)
Quick reference for pKd among some binders
Expect pKd as a plain number equal to -log10 of the molar concentration.

VH SEQ ID NO 538 / VL SEQ ID NO 398 (antibody, IgG4, V domains shown, humanized 11F2; IgG4 S228P/kappa) VH: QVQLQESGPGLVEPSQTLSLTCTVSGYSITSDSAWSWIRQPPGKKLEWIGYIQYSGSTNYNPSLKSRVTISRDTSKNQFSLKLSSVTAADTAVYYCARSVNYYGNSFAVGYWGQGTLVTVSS VL: EIVLTQSPATLSLSPGERATLSCRASQGVSDYLAWYQQKPGEAPRLLIKYTSQPATGIPARFSGSGSGTDFTLTISSLEPEDFAVYYCQNGHSFPLTFGQGTKLEIK : 7.96

Sample VH SEQ ID NO 586 / VL SEQ ID NO 382 (antibody, IgG4, V domains shown, humanized 11F2; IgG4 S228P/kappa) VH: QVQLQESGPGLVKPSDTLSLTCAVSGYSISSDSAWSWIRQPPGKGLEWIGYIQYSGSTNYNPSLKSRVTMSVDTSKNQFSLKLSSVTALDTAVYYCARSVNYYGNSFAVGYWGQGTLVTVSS VL: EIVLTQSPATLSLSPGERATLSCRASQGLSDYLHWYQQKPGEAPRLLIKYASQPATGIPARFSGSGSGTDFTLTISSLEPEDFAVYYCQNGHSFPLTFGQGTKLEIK — what was its pKd? 7.77

Then VH SEQ ID NO 514 / VL SEQ ID NO 446 (antibody, IgG4, V domains shown, humanized 11F2; IgG4 S228P/kappa) VH: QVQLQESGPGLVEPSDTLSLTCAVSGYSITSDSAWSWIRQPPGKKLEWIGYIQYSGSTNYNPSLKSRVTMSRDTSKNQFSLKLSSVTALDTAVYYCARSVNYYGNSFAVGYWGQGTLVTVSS VL: EIVLTQSPATLSLSPGERATLSCRASQGVSDYLAWYQQKPGQAPRLLIKYTSQPATGIPARFSGSGSGTDFTLTISSLEPEDFAVYYCQNGHSFPLTFGQGTKLEIK ? 8.11

Then VH SEQ ID NO 586 / VL SEQ ID NO 390 (antibody, IgG4, V domains shown, humanized 11F2; IgG4 S228P/kappa) VH: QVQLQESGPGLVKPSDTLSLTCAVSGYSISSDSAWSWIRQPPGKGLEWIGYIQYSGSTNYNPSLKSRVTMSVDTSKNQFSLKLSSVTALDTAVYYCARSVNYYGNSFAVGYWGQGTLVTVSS VL: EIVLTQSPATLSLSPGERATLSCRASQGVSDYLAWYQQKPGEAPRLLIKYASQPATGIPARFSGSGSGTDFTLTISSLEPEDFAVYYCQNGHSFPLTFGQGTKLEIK ? 7.42

Then VH SEQ ID NO 530 / VL SEQ ID NO 350 (antibody, IgG4, V domains shown, humanized 11F2; IgG4 S228P/kappa) VH: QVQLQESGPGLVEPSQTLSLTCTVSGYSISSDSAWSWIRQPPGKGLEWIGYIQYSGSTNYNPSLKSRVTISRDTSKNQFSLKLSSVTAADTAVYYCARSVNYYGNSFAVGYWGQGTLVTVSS VL: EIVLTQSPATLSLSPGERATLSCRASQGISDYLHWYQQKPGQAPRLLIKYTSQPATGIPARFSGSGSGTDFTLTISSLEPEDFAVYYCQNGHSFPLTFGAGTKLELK ? 9.02

Then VH SEQ ID NO 602 / VL SEQ ID NO 502 (antibody, IgG4, V domains shown, humanized 11F2; IgG4 S228P/kappa) VH: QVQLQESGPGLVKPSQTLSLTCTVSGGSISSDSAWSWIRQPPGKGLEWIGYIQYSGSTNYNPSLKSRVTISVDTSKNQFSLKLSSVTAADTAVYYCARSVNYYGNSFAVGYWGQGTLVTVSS VL: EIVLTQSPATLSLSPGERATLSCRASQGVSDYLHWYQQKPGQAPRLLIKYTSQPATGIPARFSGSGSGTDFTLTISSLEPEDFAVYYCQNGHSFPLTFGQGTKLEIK ? 7.85

Then VH SEQ ID NO 626 / VL SEQ ID NO 454 (antibody, IgG4, V domains shown, humanized 11F2; IgG4 S228P/kappa) VH: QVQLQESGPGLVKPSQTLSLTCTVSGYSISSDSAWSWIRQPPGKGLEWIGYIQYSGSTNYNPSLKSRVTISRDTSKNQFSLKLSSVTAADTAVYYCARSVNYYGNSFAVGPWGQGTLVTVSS VL: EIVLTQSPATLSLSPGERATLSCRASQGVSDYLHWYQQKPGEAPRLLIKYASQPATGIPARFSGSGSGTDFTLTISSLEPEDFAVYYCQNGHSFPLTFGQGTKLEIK ? 8.85

Source of measurements: patent US20220064329A1
